Biological target: human chemokine receptor CCR5 (human), P51681
Sequence (P51681 whole entry): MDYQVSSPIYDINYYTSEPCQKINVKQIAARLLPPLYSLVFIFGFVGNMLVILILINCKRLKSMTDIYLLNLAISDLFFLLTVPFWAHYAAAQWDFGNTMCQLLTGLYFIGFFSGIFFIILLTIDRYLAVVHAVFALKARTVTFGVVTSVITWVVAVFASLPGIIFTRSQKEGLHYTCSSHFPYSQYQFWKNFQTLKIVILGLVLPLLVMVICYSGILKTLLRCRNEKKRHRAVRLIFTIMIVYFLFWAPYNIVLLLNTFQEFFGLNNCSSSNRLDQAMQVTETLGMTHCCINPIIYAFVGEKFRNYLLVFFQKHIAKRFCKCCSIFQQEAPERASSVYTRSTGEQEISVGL
Assay: competition binding against 166 pM 125I-CCL3 on human PBMCs
measurement_type: IC50 (nM)
Unit nM implied. Number only.

Kindly indicate its recorded IC50. Item: FICSSPDAELFSEKSRMSSSVLLGCLLCCMDWSAAVPV (modifications not checked) [U83A-Npep, N-terminal spliced truncated form of U83A]
92

Value source: patent US20110098212A1
